- assay_remarks: Radioactivity distribution in mouse body after intravenous administration of radioiodine labeled forms
- experimental_conditions: mouse, intravenous administration, kidney, 2 min after administration; mean (SD) of 3 to 5 mice
We begin with a simple list: items and their reported Distribution of radioactivity, Kidney.
measurement_label: Distribution of radioactivity, Kidney

• Nc1ccc(C=Cc2cc(=O)c3cc([125I])ccc3o2)cc1 [[125I]Compound 46] = 11.94 (1.49) % ID/g
• CN(C)c1ccc(C=Cc2cc(=O)c3cc([125I])ccc3o2)cc1 [[125I]Compound 48] = 9.04 (1.72) % ID/g
• CN(C)c1ccc(-c2cc(=O)c3cc([125I])ccc3o2)cc1 [[125I]Compound 11] = 8.33 (1.47) % ID/g
• CNc1ccc(C=Cc2cc(=O)c3cc([125I])ccc3o2)cc1 [[125I]Compound 47] = 10.41 (1.33) % ID/g
• CNc1ccc(-c2cc(=O)c3cc([125I])ccc3o2)cc1 [[125I]Compound 10] = 8.13 (1.28) % ID/g
• O=c1cc(-c2ccc(O)cc2)oc2ccc([125I])cc12 [[125I]Compound 20] = 14.79 (2.59) % ID/g
• COc1cc(/C=C/C(=O)c2cccc([125I])c2)ccc1O [[125I]Compound 31] = 11.99 (3.60) % ID/g
• COc1ccc(-c2cc(=O)c3cc([125I])ccc3o2)cc1 [[125I]Compound 19] = 7.99 (1.08) % ID/g

----------
- tested_target: Aβ(1-40) aggregates (Homo sapiens)
- Construct: The amyloid β protein (Human, 1-40) [HCl form]; purchased Peptide Institute, Inc
- Sequence (P05067 672-711 limits assumed): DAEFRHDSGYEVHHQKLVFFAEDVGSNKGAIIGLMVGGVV
- assay_remarks: In vitro binding of [125I]-labelled compounds to Aβ aggregates (filtration, radioactivity on filter)
- experimental_conditions: [125I]-labelled compound; radioactivity remaining on filter in presence vs absence of Aβ aggregates
measurement_label: bindability to the Aβ aggregates

• CN(C)c1ccc(/C=C/C(=O)c2ccc(I)cc2)cc1 = high binding affinity
• Nc1ccc(C=Cc2cc(=O)c3cc(I)ccc3o2)cc1 = high binding affinity
• CN(C)c1ccc(C=Cc2cc(=O)c3cc(I)ccc3o2)cc1 = high binding affinity

----------
- assay_remarks: Radioactivity distribution in mouse body after intravenous administration of radioiodine labeled forms
- experimental_conditions: mouse, intravenous administration, spleen, 60 min after administration; mean (SD) of 3 to 5 mice
measurement_label: Distribution of radioactivity, Spleen

• CNc1ccc(-c2cc(=O)c3cc([125I])ccc3o2)cc1 [[125I]Compound 10] = 1.52 (0.29) % ID/g
• CN(C)c1ccc(C=Cc2cc(=O)c3cc([125I])ccc3o2)cc1 [[125I]Compound 48] = 2.82 (0.36) % ID/g
• COc1ccc(-c2cc(=O)c3cc([125I])ccc3o2)cc1 [[125I]Compound 19] = 3.67 (5.89) % ID/g
• CN(C)c1ccc(-c2cc(=O)c3cc([125I])ccc3o2)cc1 [[125I]Compound 11] = 1.18 (0.17) % ID/g
• COc1cc(/C=C/C(=O)c2cccc([125I])c2)ccc1O [[125I]Compound 31] = 0.88 (0.15) % ID/g

----------
We begin with a simple list: items and their reported Distribution of radioactivity, Brain.
- assay_remarks: Radioactivity distribution in mouse body after intravenous administration of radioiodine labeled forms
- experimental_conditions: mouse, intravenous administration, brain, 2 min after administration; mean (SD) of 3 to 5 mice
- Method: Thereafter, 100 μl (0.5 to 1 μCi) of each labeled form was intravenously administered to each group consisting of three to five 5-week-old ddY male mice (25 to 30 g). 2, 10, 30, and 60 minutes after the intravenous administration, such mice were decapitated, and blood was collected. Thereafter, organs were excised, and the weight and radioactivity thereof were then measured.
measurement_label: Distribution of radioactivity, Brain

* COc1cc(/C=C/C(=O)c2cccc([125I])c2)ccc1O [[125I]Compound 31] | 2.52 (0.20) % ID/g
* CNc1ccc(-c2cc(=O)c3cc([125I])ccc3o2)cc1 [[125I]Compound 10] | 4.12 (0.15) % ID/g
* Nc1ccc(C=Cc2cc(=O)c3cc([125I])ccc3o2)cc1 [[125I]Compound 46] | 4.88 (0.47) % ID/g
* CN(C)c1ccc(-c2cc(=O)c3cc([125I])ccc3o2)cc1 [[125I]Compound 11] | 3.22 (0.15) % ID/g
* CNc1ccc(C=Cc2cc(=O)c3cc([125I])ccc3o2)cc1 [[125I]Compound 47] | 2.84 (0.35) % ID/g
* CN(C)c1ccc(C=Cc2cc(=O)c3cc([125I])ccc3o2)cc1 [[125I]Compound 48] | 0.70 (0.10) % ID/g
* COc1ccc(-c2cc(=O)c3cc([125I])ccc3o2)cc1 [[125I]Compound 19] | 4.00 (0.18) % ID/g
* O=c1cc(-c2ccc(O)cc2)oc2ccc([125I])cc12 [[125I]Compound 20] | 3.31 (0.32) % ID/g
